measured.target: UniProt O15530
experimental.protocol: Kinase-specific FRET-based Z'-LYTE assay against PDK1 Direct kinase
Assay type: biochemical
assay.setup: read-out: PDK1 IC50
Description: The compounds of Formula (I) and (II) were tested in the biological test named Kinase-specific Z′-LYTE® assay (Invitrogen Corporation, Life Technologies).
metric: IC50 (µM)
Kindly answer with a numeric value in µM, unit omitted.

Problem: Query (compound): O=C(CCCNC(=O)c1cccn(Cc2ccc(F)c(F)c2)c1=O)Nc1ccc2c(c1)C(=Cc1cccs1)C(=O)N2 (mixture of isomers) ; field requested: IC50
Solution: 5.88

Problem: Another compound: "O=C(CCNC(=O)c1cccn(Cc2ccc(F)c(F)c2)c1=O)Nc1ccc2c(c1)/C(=C/c1cccs1)C(=O)N2"
Solution: 1.34

Problem: Another compound: "O=C1Nc2ccc(NC(=O)c3cccn(Cc4ccc(F)c(F)c4)c3=O)cc2/C1=C/c1cnc[nH]1"
Solution: 0.512

Problem: Another compound: "O=C(CNC(=O)c1cccn(Cc2ccc(F)c(F)c2)c1=O)Nc1ccc2c(c1)CC(=O)N2"
Solution: 6.68

Problem: Another compound: "O=C1Nc2ccc(NC(=O)[C@H](NC(=O)c3cccn(Cc4ccc(F)c(F)c4)c3=O)c3ccccc3)cc2/C1=C/c1ncc[nH]1"
Solution: 1.52

Problem: Another compound: "O=C(CNC(=O)c1cccn(Cc2ccc(F)c(F)c2)c1=O)Nc1ccc2c(c1)/C(=C/c1cnc[nH]1)C(=O)N2"
Solution: 0.112

====

measured.target: PDK1 Direct kinase (Homo sapiens (Human), UniProt O15530)
Sequence (O15530 whole entry): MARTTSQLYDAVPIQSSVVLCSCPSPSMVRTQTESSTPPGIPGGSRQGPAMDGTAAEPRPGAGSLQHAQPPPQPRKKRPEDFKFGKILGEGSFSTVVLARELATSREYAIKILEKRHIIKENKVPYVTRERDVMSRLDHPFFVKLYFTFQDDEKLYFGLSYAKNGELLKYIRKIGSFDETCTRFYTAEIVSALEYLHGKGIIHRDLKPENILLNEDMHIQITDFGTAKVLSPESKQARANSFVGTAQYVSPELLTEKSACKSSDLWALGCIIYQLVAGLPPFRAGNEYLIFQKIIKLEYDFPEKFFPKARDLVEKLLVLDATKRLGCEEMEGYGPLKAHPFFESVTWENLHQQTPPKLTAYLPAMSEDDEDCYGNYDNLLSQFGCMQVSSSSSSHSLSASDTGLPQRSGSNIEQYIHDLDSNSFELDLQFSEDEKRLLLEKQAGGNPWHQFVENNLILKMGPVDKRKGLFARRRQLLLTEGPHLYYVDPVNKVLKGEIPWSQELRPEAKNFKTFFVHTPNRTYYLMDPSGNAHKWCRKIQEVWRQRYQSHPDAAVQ
experimental.protocol: Kinase-specific FRET-based Z'-LYTE assay against PDK1 Direct kinase
Assay type: biochemical
Exercise: for every item that follows, state its recorded inhibition at 10 µM.

Problem: Query (compound): O=C(CNC(=O)c1cccn(Cc2ccc(F)c(F)c2)c1=O)Nc1ccc2c(c1)C(=Cc1cccs1)C(=O)N2 (mixture of isomers) ; field requested: inhibition at 10 µM
Solution: 19%

Problem: Another compound: "O=C(CCNC(=O)c1cccn(Cc2ccc(F)c(F)c2)c1=O)Nc1ccc2c(c1)/C(=C/c1cnc[nH]1)C(=O)N2"
Solution: > 50%

Problem: Another compound: "O=C1Nc2ccc(NC(=O)[C@H](NC(=O)c3cccn(Cc4ccc(F)c(F)c4)c3=O)c3ccccc3)cc2/C1=C/c1ncc[nH]1"
Solution: > 50%

Problem: Another compound: "O=C(CNC(=O)c1cccn(Cc2ccc(F)c(F)c2)c1=O)Nc1ccc2c(c1)CC(=O)N2"
Solution: > 50%

Problem: Another compound: "O=C(CNC(=O)c1cccn(Cc2ccc(F)c(F)c2)c1=O)Nc1ccc2c(c1)/C(=C/c1cnc[nH]1)C(=O)N2"
Solution: > 50%

Problem: Another compound: "O=C(CCNC(=O)c1cccn(Cc2ccc(F)c(F)c2)c1=O)Nc1ccc2c(c1)/C(=C/c1ncc[nH]1)C(=O)N2"
Solution: 47%

Problem: Another compound: "O=C(CCNC(=O)c1cccn(Cc2ccc(F)c(F)c2)c1=O)Nc1ccc2c(c1)/C(=C/c1cccs1)C(=O)N2"
Solution: > 50%

Problem: Another compound: "O=C(CCNC(=O)c1cccn(Cc2ccc(F)c(F)c2)c1=O)Nc1ccc2c(c1)/C(=C/c1ccc(F)cc1)C(=O)N2"
Solution: 15%

Problem: Another compound: O=C1Nc2ccc(NC(=O)c3cccc(NC(=O)c4cccn(Cc5ccc(F)c(F)c5)c4=O)c3)cc2C1=Cc1cccs1 (mixture of isomers)
Solution: 26%

Problem: Another compound: "O=C(CCCNC(=O)c1cccn(Cc2ccc(F)c(F)c2)c1=O)Nc1ccc2c(c1)/C(=C/c1cnc[nH]1)C(=O)N2"
Solution: > 50%

Problem: Another compound: "O=C1Nc2ccc(NC(=O)c3cccn(Cc4ccc(F)c(F)c4)c3=O)cc2/C1=C/c1cnc[nH]1"
Solution: > 50%

Problem: Another compound: O=C(CCCNC(=O)c1cccn(Cc2ccc(F)c(F)c2)c1=O)Nc1ccc2c(c1)C(=Cc1cccs1)C(=O)N2 (mixture of isomers)
Solution: > 50%

====

measured.target: UniProt:O15530
experimental.protocol: Kinase-specific FRET-based Z'-LYTE assay against PDK1 Direct kinase
Format: biochemical
assay.setup: read-out: IC50 (nM) PDK1 direct
metric: IC50
The number alone won't do; follow it with the unit.

Problem: Provide the documented IC50 with UniProt:O15530 as the system for "O=C(CNC(=O)c1cccn(Cc2ccc(F)c(F)c2)c1=O)Nc1ccc2c(c1)/C(=C/c1cnc[nH]1)C(=O)N2"
Solution: 112 nM

Problem: Another molecule: "O=C1Nc2ccc(NC(=O)[C@H](NC(=O)c3cccn(Cc4ccc(F)c(F)c4)c3=O)c3ccccc3)cc2/C1=C/c1ncc[nH]1"
Solution: 1520 nM
